Please provide measured Sample B (Probe) Signal for the entries that follow.
Biological target: T1, native human ESRRG protein (Estrogen-receptor related receptor gamma) (human, UniProt P62508 229-458, limits assumed)
T1 construct: the screened protein is called 'native human ESRRG protein'; also called ESSRG; ERRγ
T1 sequence (looked up): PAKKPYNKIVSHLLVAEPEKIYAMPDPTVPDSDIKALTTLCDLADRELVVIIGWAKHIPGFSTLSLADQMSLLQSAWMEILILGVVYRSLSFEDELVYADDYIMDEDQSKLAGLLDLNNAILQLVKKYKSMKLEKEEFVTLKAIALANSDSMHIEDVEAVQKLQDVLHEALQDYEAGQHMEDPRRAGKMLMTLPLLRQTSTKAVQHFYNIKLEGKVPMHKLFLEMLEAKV
Assay: peptide microarray, Iteration 2; bound ESRRG detected with fluorescent anti-ESRRG mAb
Where no end group is shown, it is not given here.

QUERY: Which Sample B (Probe) Signal is listed for Ac-YFLLQQGP ?
RESULT: 794 fluorescence intensity units

QUERY: Next up: Ac-AHNYLLEH
RESULT: 619 fluorescence intensity units

QUERY: Next up: Ac-RRSYPRGR
RESULT: 1660 fluorescence intensity units

QUERY: Next up: Ac-FFNFSLPA
RESULT: 1040 fluorescence intensity units

QUERY: Next up: Ac-EESYPRDK
RESULT: 554 fluorescence intensity units

QUERY: Next up: Ac-HRSYPRRG
RESULT: 19000 fluorescence intensity units

QUERY: Next up: Ac-RLLHYGSY
RESULT: 1200 fluorescence intensity units

QUERY: Next up: Ac-HLKLKQEN
RESULT: 1750 fluorescence intensity units

QUERY: Next up: Ac-FWKGHFDF
RESULT: 1460 fluorescence intensity units

QUERY: Next up: Ac-LFLLQQDD
RESULT: 2420 fluorescence intensity units

QUERY: Next up: Ac-HNNFSLEP
RESULT: 441 fluorescence intensity units
